Entry source: paper PMC8809517

# assay-target: T1, GFP-9S library array, motif 4 ND D124E (synthetic construct, D124E)
# T1 chain: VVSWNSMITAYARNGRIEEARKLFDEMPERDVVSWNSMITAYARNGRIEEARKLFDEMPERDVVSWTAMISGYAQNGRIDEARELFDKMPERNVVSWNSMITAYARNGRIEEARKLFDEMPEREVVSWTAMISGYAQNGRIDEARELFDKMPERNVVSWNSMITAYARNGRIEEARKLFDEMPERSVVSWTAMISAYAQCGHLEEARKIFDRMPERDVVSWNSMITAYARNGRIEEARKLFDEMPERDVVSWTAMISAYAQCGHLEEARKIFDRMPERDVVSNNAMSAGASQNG
# assay-remarks: high-throughput RNA pulldown from lysate on Ni-NTA beads; HRP: 50 mM Tris pH 8, 150 mM NaCl, 1 mM beta-mercaptoethanol, 50 ug/ml BSA, 3 ug/ml yeast RNA, 0.5% heparin; ITC and FP: Tris pH 8, 200 mM KCl, 5% glycerol; MST: 50 mM Tris pH 8, 200 mM NaCl, 1 mM DTT, BSA, heparin, 0.05% Tween 20
# particulars: tags: N-terminal His-eGFP; label: 5' IRDye 800CW
pKd: −log10 of the molar value.
Entries and their pKd values follow.

binder	pKd
AUUAUACGUGA (ssRNA) [IR-rpoA-U]	8.45
AUUAAACGUGA (ssRNA) [IR-rpoA-A]	6.86
